Target: Gamma secretase (Homo sapiens, UniProt P49768)
Construct: endogenous in cells; host or cells: Salt-washed membranes of 293 T-REx cells, clone pTRE.15; Only the substrate SPC99-Lon is transfected (pcDNA4/TO, tetracycline-induced)
Assay: Gamma secretase activity assay on membranes of 293 cells expressing SPC99-Lon (Aβ 40 / Aβ 42 measured by ECL immunoassay)
Assay type: biochemical
Conditions: membrane γ-secretase assay, 37 C, 1 h; read-out: IC50 (μM), γ-secretase inhibitory activity
OBSERVATION TYPE: IC50 (µM)

Worked examples, 4 molecules total:
>>> result_value("NC(=O)C1(N2CCCCC2)CCN(C(=O)OC2(C3CCCC(c4cccc(F)c4)N3S(=O)(=O)c3ccc(Cl)cc3)CC2)CC1 (stereo not drawn)")
0.0027
>>> result_value("O=C(OC1([C@H]2CCC[C@@H](c3cc(F)cc(F)c3)N2S(=O)(=O)c2ccc(Cl)cc2)CC1)N1CCC(N2CCCCC2)CC1")
0.0002
>>> result_value("O=C(OC1([C@H]2CCC[C@@H](C3CC3)N2S(=O)(=O)c2ccc(Cl)cc2)CC1)N1CCC(N2CCCCC2)CC1")
0.0028
>>> result_value("O=C(OC[C@H]1CCC[C@@H](c2cccc(F)c2)N1S(=O)(=O)c1ccc(Cl)cc1)N1CCC(N2CCCCC2)CC1")
0.0027

(P) O=C(OC1(C2CCCC(c3cccc(F)c3)N2S(=O)(=O)c2ccc(Cl)cc2)CC1)N1CCC(N2CCCCC2)CC1 (stereo not drawn)
(Q) O=C(OC[C@H]1CCC[C@@H](c2cc(F)cc(F)c2)N1S(=O)(=O)c1ccc(Cl)cc1)N1CCC(N2CCCCC2)CC1 [Example 67-BG]
**Q:** So which one has the bigger IC50 here, P or Q ? Answer = label.
**A:** Q

Cited source: patent US7256186B2
